# Test system: UACC-257
# assay.text: NCI tumour cell line growth inhibition, 48 h
Activity calls are given as the source filed them. Cut-off read from the data, not from the text of the source: active = GI50 up to about 1.1 µM and inactive = higher.
readout.type: GI50

>  <compound>
CCOC(=O)COc1ccc(/C=C/C(=O)c2ccc(OC)cc2)cc1

>  <system.under.test>
UACC-257

>  <GI50>
23.1 µM (inactive)

$$$$
>  <compound>
COc1ccc(/C=C2/C(=O)N(C(=O)c3ccccc3O)N=C2C)cc1

>  <system.under.test>
UACC-257

>  <GI50>
0.442 µM (active)

$$$$
>  <compound>
COC(=O)C(CSSC[C@H](N/C(C)=C/C(C)=O)C(=O)OC)N/C(C)=C/C(C)=O (stereo partly specified)

>  <system.under.test>
UACC-257

>  <GI50>
32.7 µM (inactive)

$$$$

Would you be so kind as to report GI50 for each listed record?
1. CCCCCC/C=C/CCCCCCCc1cccc(O)c1C(=O)O
2. CCCC#CC(O)(C(=O)OC1CCN(C)CC1)C1CCCCC1 (stereo unspecified)

Solution:
["49.4 µM (inactive)", "46.6 µM (inactive)"]

Would you be so kind as to report GI50 for each listed record?
1. COc1ccc(C(Cc2ccccc2)C2NC(=S)NC2=O)cc1 (stereo unspecified)
2. Cn1c2ccccc2c(=NNc2ccc(S(=O)(=O)N=C(N)N)cc2)c2ccccc21
3. CC[n+]1c(/C=C/c2ccc(N(CCCl)CCCl)cc2)ccc2cc(I)ccc21
4. CCN(CC)Cc1ccc(Nc2c3ccccc3nc3ccccc23)cc1
5. O=C1Oc2cc3c(c4cccc1c24)OCN(c1ccc(Cl)cc1)C3

Solution:
1. > 25 µM (inactive)
2. 15.5 µM (inactive)
3. 0.514 µM (active)
4. 1.71 µM (inactive)
5. 34.9 µM (inactive)

Would you be so kind as to report GI50 for each listed record?
1. CCN(CC)C(=O)CCCCCCCCC1CO1 (stereo unspecified)
2. COc1cc2c(cc1OC)[C@@H]1[C@H](C#N)C(=O)C(C)(C)N1CC2
3. Cc1ccc(N(C)S(=O)(=O)c2ccccc2[N+](=O)[O-])cc1

Solution:
["> 100 µM (inactive)", "> 100 µM (inactive)", "41.7 µM (inactive)"]

Would you be so kind as to report GI50 for each listed record?
1. C/C(=N\NS(=O)(=O)c1ccc(C)cc1)C(CN1CCCCC1)C(c1ccccc1)c1c(O)c2ccccc2oc1=O (stereo unspecified)
2. Cc1nc2c(=S)[nH]ncc2[nH]1
3. O=C(O)c1ccccc1C(=O)NCC1S(=O)(=O)OCCOS1(=O)=O
4. Nc1ccc(C(=O)O)cc1.Nc1nc(N)c2nc[nH]c2n1
5. O=C(O)[C@@]1(Cc2ccc(O)cc2)C[C@@H]2Cc3ccccc3N2N1
6. O=[N+]([O-])C(=C1NCCN1)/C(Cl)=C(/Cl)N1CCOCC1
7. CC(C)[C@H]1NC(=O)[C@H]2N=C(O[C@@H]2C)[C@@H]2CCCN2C(=O)[C@H](Cc2ccccc2)NC(=O)[C@@H]2COC(=N2)[C@@H](Cc2ccccc2)NC(=O)[C@@H]2COC1=N2
8. COc1cc2c(cc1OC)C1Cc3cc(OC)c(OC)cc3C(C2)O1

Solution:
1. > 100 µM (inactive)
2. > 100 µM (inactive)
3. > 100 µM (inactive)
4. 17.5 µM (inactive)
5. > 100 µM (inactive)
6. > 100 µM (inactive)
7. > 100 µM (inactive)
8. > 100 µM (inactive)
